target: PPARγ (Homo sapiens, UniProt P37231); construct: expressed in transfected cells; host or cells: CHO-K1; experiment: Evaluation of PPARγ activating action (luciferase reporter in PPARγ:RXRα:4ERPP/CHO-K1 cells); assay type: cell-based; conditions: CHO-K1, 24 h; test compound 10^−6 M; luciferase activity relative to control compound X (1 μM) = 100%, non-administration group = 0%; read-out: PPARγ activating action (activation % (10^−6 M))
Kindly supply the reported activation at 1 µM values for the records listed here.
Give the value in % but do not write % after it.

Request: Could you tell me which activation at 1 µM is on file for CCCCc1nc(OC)n(Cc2ccccc2)c(=O)c1Cc1ccc(-c2ccccc2-c2noc(=O)[nH]2)cc1 [Example 107] ?
Response: 60

Request: Could you tell me which activation at 1 µM is on file for CCCCc1nc(C)n(CC23CC4CC(CC(C4)C2)C3)c(=O)c1Cc1ccc(-c2ccccc2-c2noc(=O)[nH]2)cc1 [Example 42] ?
Response: 61.2

Request: Could you tell me which activation at 1 µM is on file for CCCc1nc(CC)n(-c2ccc(OC(C)C)cc2)c(=O)c1Cc1ccc(-c2ccccc2-c2noc(=O)[nH]2)cc1 [Example 362] ?
Response: 58.7

Request: Could you tell me which activation at 1 µM is on file for CCCc1nc(CC)n(-c2ccc(OC3(COC)CCCC3)cc2)c(=O)c1Cc1ccc(-c2ccccc2-c2noc(=O)[nH]2)cc1 [Example 389] ?
Response: 18.1

Request: Could you tell me which activation at 1 µM is on file for CCCCc1nc(C)n(-c2ccc3c(c2)CC(C)(C)O3)c(=O)c1Cc1ccc(-c2ccccc2-c2noc(O)n2)cc1 [Example 234] ?
Response: 33.9

Request: Could you tell me which activation at 1 µM is on file for CCCCc1nc(C)n(-c2ccoc2)c(=O)c1Cc1ccc(-c2ccccc2-c2noc(=O)[nH]2)cc1 [Example 206] ?
Response: 21.8

###

Target: PPARγ (Homo sapiens, UniProt P37231)
Construct: expressed in transfected cells; host or cells: CHO-K1
Sequence (P37231 1-477 isoform P37231-2): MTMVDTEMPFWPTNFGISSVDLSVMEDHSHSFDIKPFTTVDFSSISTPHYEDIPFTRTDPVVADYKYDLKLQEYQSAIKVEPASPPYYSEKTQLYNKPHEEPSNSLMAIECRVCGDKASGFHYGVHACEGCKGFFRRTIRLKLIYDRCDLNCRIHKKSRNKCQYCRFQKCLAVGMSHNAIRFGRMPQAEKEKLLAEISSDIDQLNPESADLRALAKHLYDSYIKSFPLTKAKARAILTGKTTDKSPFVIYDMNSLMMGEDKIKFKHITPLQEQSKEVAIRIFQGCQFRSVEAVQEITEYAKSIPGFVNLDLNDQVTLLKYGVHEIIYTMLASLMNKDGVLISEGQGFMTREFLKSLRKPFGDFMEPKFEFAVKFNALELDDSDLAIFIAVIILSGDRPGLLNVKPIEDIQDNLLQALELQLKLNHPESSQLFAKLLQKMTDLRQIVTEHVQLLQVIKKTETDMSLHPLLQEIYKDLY
Sequence (P19793 1-462 partner): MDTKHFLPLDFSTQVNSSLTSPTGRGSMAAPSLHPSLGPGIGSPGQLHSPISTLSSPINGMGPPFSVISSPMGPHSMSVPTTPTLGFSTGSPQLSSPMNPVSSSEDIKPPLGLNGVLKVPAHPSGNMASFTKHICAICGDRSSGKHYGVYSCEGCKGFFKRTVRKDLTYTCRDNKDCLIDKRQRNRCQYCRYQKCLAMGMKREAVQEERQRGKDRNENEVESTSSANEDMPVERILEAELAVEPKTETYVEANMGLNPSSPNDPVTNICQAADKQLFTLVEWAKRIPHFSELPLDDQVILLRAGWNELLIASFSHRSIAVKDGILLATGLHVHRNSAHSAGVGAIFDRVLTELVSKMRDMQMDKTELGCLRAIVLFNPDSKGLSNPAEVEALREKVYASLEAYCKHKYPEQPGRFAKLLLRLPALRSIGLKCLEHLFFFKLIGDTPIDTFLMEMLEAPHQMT
Experiment: Evaluation of PPARγ activating action (luciferase reporter in PPARγ:RXRα:4ERPP/CHO-K1 cells)
Type: cell-based
Details: CHO-K1, 24 h; test compound 10^−6 M; luciferase activity relative to control compound X (1 μM) = 100%, non-administration group = 0%; read-out: PPARγ activating action (activation % (10^−6 M))
Protocol: PPARγ:RXRα:4ERPP/CHO-K1 cells obtained in the following Reference Example 5 were cultured in F12 medium [manufactured by INVITROGEN, USA] containing 10% fetal bovine serum [manufactured by MOREGATE, Australia], seeded in a 96-well half area white plate [manufactured by Corning Coster Corporation, USA] at the density of 5×10^3 cells/well and cultured in a CO2 gas incubator at 37° C. overnight. […]
Answer NO if activation at 1 µM is under 30%, and YES if it is 30% or more.

Request: Quick check, activation at 1 µM >= 30%? `CCCc1nc(C)n(-c2ccc(OC3CCCC3)cc2)c(=O)c1Cc1ccc(-c2ccccc2-c2noc(=O)[nH]2)cc1`
Response: NO

Request: Quick check, activation at 1 µM >= 30%? CCCCc1nc(C)n(CC2CCCCO2)c(=O)c1Cc1ccc(-c2ccccc2-c2noc(=O)[nH]2)cc1 (stereo not shown)
Response: YES

Request: Quick check, activation at 1 µM >= 30%? `CCCc1nc(C)n(C=C(C)C)c(=O)c1Cc1ccc(-c2ccccc2-c2noc(=O)[nH]2)cc1`
Response: NO

Request: Quick check, activation at 1 µM >= 30%? `CCCc1nc(C)n(-c2ccc3c(c2)CC(C)(C)O3)c(=O)c1Cc1ccc(-c2ccccc2-c2noc(O)n2)c(F)c1`
Response: NO

Request: Quick check, activation at 1 µM >= 30%? CCCc1nc(C)n(-c2ccc(OC3CCC(=O)C(C)C3)cc2)c(=O)c1Cc1ccc(-c2ccccc2-c2noc(O)n2)cc1 (stereo not shown)
Response: NO

Request: Quick check, activation at 1 µM >= 30%? `CCCCc1nc(C)n(Cc2c(F)cccc2F)c(=O)c1Cc1ccc(-c2ccccc2-c2noc(=O)[nH]2)cc1`
Response: YES

Request: Quick check, activation at 1 µM >= 30%? `C=COc1ccc(-n2c(C)nc(CCC)c(Cc3ccc(-c4ccccc4-c4noc(=O)[nH]4)cc3F)c2=O)cc1`
Response: YES

Request: Quick check, activation at 1 µM >= 30%? `CCCc1nc(C)n(-c2ccc3c(c2)CC(C)(C)O3)c(=O)c1Cc1ccc(-c2ccccc2-c2noc(=O)[nH]2)cc1Cl`
Response: YES

Request: Quick check, activation at 1 µM >= 30%? `CCCc1nc(CC)c(-c2ccc(OC(F)(F)F)cc2)c(=O)n1Cc1ccc(-c2ccccc2-c2noc(O)n2)cc1`
Response: YES

Request: Quick check, activation at 1 µM >= 30%? `CCCc1nc(CC)c(CN2CCOCC2)c(=O)n1Cc1ccc(-c2ccccc2-c2noc(=O)[nH]2)cc1`
Response: NO

Request: Quick check, activation at 1 µM >= 30%? `CCCc1ncn(-c2ccc3c(c2)CC(C)(C)O3)c(=O)c1Cc1ccc(-c2ccccc2-c2noc(=O)[nH]2)cc1`
Response: YES

Request: Quick check, activation at 1 µM >= 30%? `CCCCc1nc(CF)n(Cc2ccccc2)c(=O)c1Cc1ccc(-c2ccccc2-c2noc(=O)[nH]2)cc1`
Response: YES

Request: Quick check, activation at 1 µM >= 30%? `CCCCc1nc(C)n(CCCC)c(=O)c1Cc1ccc(-c2ccccc2-c2noc(=O)[nH]2)cc1`
Response: YES

Request: Quick check, activation at 1 µM >= 30%? `CCCc1nc(C)n(OC2CCOCC2)c(=O)c1Cc1ccc(-c2ccccc2-c2noc(=O)[nH]2)cc1`
Response: YES

Request: Quick check, activation at 1 µM >= 30%? `CCCCc1nc(C2CC2)c(-c2ccc(OC(C)(C)CO)cc2)c(=O)n1Cc1ccc(-c2ccccc2-c2noc(O)n2)cc1`
Response: NO

Request: Quick check, activation at 1 µM >= 30%? `CCCCc1nc(OC)n(-c2ccccc2)c(=O)c1Cc1ccc(-c2ccccc2-c2noc(=O)[nH]2)cc1`
Response: YES

Request: Quick check, activation at 1 µM >= 30%? `CCCc1nc(C)n(-c2ccc3c(c2)C=CC(C)(C)O3)c(=O)c1Cc1ccc(-c2ccccc2-c2noc(=O)[nH]2)cc1`
Response: YES
